TGI values for the molecules below.
# Tested on: M14 melanoma
# Assay: NCI tumour cell line growth inhibition, 48 h
Measurement Kind: TGI

# Molecule, Reported Measurement
records = [
    ("CC(=O)OCC12C(OC(C)=O)C(=O)C3C(OC(C)=O)C14OC3(C)COC(=O)c1cccnc1C(C)C(C)C(=O)OC(C(OC(C)=O)C2OC(C)=O)C4(C)O (stereo not drawn)", "> 100 µM"),
    ("COc1ccc(C=C2C(=O)NC(=S)NC2=O)c2ccccc12", "> 100 µM"),
    ("COC(=O)C1(C(=O)OC)N=C(C)OC1c1ccoc1 (stereo not drawn)", "> 100 µM"),
    ("O=[N+]([O-])c1ccc2c3c1[C@H]1O[C@H]1c1cccc(c1-3)[C@@H]1O[C@H]21", "3.75 µM"),
    ("O=C1CCN(CCC(F)(F)C(F)(F)C(F)(F)C(F)(F)C(F)(F)C(F)(F)F)C(=S)N1CCC(F)(F)C(F)(F)C(F)(F)C(F)(F)C(F)(F)C(F)(F)F", "> 100 µM"),
    ("NC(Cc1cnc(I)[nH]1)C(=O)O (stereo not drawn)", "> 100 µM"),
    ("FC(F)(F)c1ccc(C2=N/S(c3ccccc3)=N\\C(c3ccc(C(F)(F)F)cc3)=N/S(c3ccccc3)=N\\2)cc1 (stereo not drawn)", "> 100 µM"),
    ("C=C1C(=O)O[C@H]2[C@H]1CC/C(COC(=O)NCc1c[nH]c3ccc(Br)cc13)=C\\CC[C@@]1(C)O[C@@H]21", "3.07 µM"),
]

----------
# Test system: EKVX NSCLC
# Assay: NCI tumour cell line growth inhibition, 48 h
Measurement Kind: log10(TGI) (log10 of the value in µM)

# Compound, Reported Measurement
measured = [
    ("CN1CCN(Cc2ccc(NC(=O)c3cncc(C#Cc4cnc5ccc(Cl)nn45)c3)cc2C(F)(F)F)CC1", 0.37),
    ("Clc1ccc(-c2nc(-c3ccccc3)cn3ccnc23)cc1", 1.69),
    ("COc1cccc(C2c3cc4c(cc3OC(NNc3ccccc3)C2C)OCO4)c1OC (stereo unspecified)", 1.51),
    ("C=C1C(=O)O[C@H]2[C@H]1CC/C(COC(=O)NCc1c[nH]c3ccc(Br)cc13)=C\\CC[C@@]1(C)O[C@@H]21", 0.48),
    ("C/C(=N\\NC(=S)N1CCN(c2ccccn2)CC1)c1cccc(C)n1", 1.02),
    ("NC(=O)c1ccc(NCC2=CC(=O)C=CC2=O)cc1", 1.54),
    ("COC(=O)CCC1=C(C)C(C)=N/C1=C\\c1[nH]c(-c2ccc[nH]2)cc1OC", 1.16),
    ("COC(=O)C1C(O)C(C)C(O)C(C)(O)/C=C/C=C(C)C(=O)Nc2c(C)c(OC(C)=O)c3c(c2O)C(=O)C(C)=C2OCOC(=C23)C(C)=CC(C)(O)C(O)C(C)C1OC(C)=O (stereo unspecified)", 1.83),
    ("N#C/C(=C/N1C(=O)/C(=C/c2ccc([N+](=O)[O-])cc2)SC1=S)c1nc2ccccc2s1", 1.79),
    ("C1CCC(C(CC2CCCCN2)C2CCCCC2)CC1 (stereo unspecified)", 0.52),
    ("CCCCCCCCCCCCCCCC[N+](C)(C)Cc1ccc(F)cc1", 0.78),
    ("CCOC(=O)NC(C(F)(F)F)(C(F)(F)F)P(=O)(OCC(C)C)OCC(C)C", 1.87),
    ("S=C1Cc2cc3ccccc3nc2-c2ccccc2N1", 1.90),
    ("CCN1CCN(Cc2ccc(NC(=O)c3nc4ccc5[nH]ncc5c4c4c3CCCC4)cc2C(F)(F)F)CC1", 0.94),
    ("CC1CN=C(c2cccc(-c3ccc(-c4ccccc4)o3)c2)N1 (stereo unspecified)", 1.28),
    ("Clc1ccc(Cc2nc3cc(Cl)ccc3o2)cc1", 1.91),
    ("Nc1nc(CCl)nc(N2CCOCC2)n1", 1.58),
]
